B1: Pistol ribozyme (parent)
chain: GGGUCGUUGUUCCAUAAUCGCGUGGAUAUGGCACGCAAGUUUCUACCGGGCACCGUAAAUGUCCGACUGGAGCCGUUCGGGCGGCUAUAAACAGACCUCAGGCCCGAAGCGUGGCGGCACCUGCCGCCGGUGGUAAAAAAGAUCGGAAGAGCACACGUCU

Variants of: B1
Test: aptazyme ON/OFF ratio, guanine; higher = stronger switching; co-transcriptional cleavage with and without guanine
So I've got a bunch of variants here, and I need their aptazyme ON/OFF ratio values.
Form rule: numeric answer, no unit written next to it.

Form field aptazyme ON/OFF ratio, entry U7C U8C G9C U11A C12G C13G : 1.07

Form field aptazyme ON/OFF ratio, entry U7A U8C U10C U11C C13U : 1.01

Form field aptazyme ON/OFF ratio, entry U7A U8G U10G U11G C12G C13U : 1.18

Form field aptazyme ON/OFF ratio, entry U7A G9C U10G U11C C12G : 1.08

Form field aptazyme ON/OFF ratio, entry U7G U10C U11A : 1.32

Form field aptazyme ON/OFF ratio, entry U7A U8C G9A U10G U11G : 1.08

Form field aptazyme ON/OFF ratio, entry U7G G9U U11G C12G C13U : 1.29

Form field aptazyme ON/OFF ratio, entry U7C U8C G9U U11C C12U C13A : 1.03

Form field aptazyme ON/OFF ratio, entry U7C U8C G9C U10G C12G C13A : 1.05

Form field aptazyme ON/OFF ratio, entry U8G G9U U10C U11C C12G : 1.02

Form field aptazyme ON/OFF ratio, entry C12G : 1.45

Form field aptazyme ON/OFF ratio, entry U8A G9C U11A C12A C13A : 1.22

Entry source: the RNAGym collection of RNA variant scans (doi:10.1021/acssynbio.7b00057)
